Observed IC50 for Voltage-gated inwardly rectifying potassium channel KCNH2 (Homo sapiens, UniProt Q12809), reported per entry below.

compound: COc1cc2c(cc1OC)C(Cc1ccc(O)c(Oc3ccc(C[C@@H]4c5cc(OC)c(OC)cc5CCN4C)cc3)c1)N(C)CC2 (single isomer, unassigned) [DAURICINE]
unit-abbrev: µM
IC50: 16

compound: COc1ccc(CN(CCN(C)C)c2ccccn2)cc1 [PYRILAMINE]
unit-abbrev: µM
IC50: 1.1

compound: CCCCCCCN(CC)CCCCc1ccc([N+](=O)[O-])cc1
unit-abbrev: µM
IC50: 0.01

compound: CCCNCC(O)COc1ccc(O)cc1C(=O)CCc1ccccc1 (stereo unspecified) [5-HYDROXY PROPAFENONE]
unit-abbrev: µM
IC50: 40

compound: CN1CCN(CCCCN2C(=O)CN(/N=C/c3ccc(-c4ccc(Cl)cc4)o3)C2=O)CC1 [AZIMILIDE]
unit-abbrev: µM
IC50: 0.4

compound: COc1ccc(C(=O)N2CCN(c3ccc4c(c3)CCC(=O)N4)CC2)cc1OC [VESNARINONE]
unit-abbrev: µM
IC50: 18

The measured values listed here are drawn from ChEMBL document CHEMBL1137856.
